assay: in vitro; conditions: human, undifferentiated SH-SY5Y cells
OBSERVABLE: IC50 at 24 h (µM)
Just the number please, in µM, no unit attached.

Incoming: Tell me its IC50 at 24 h given C#CCN(C)c1nc(NCCCC)c2ccc(Cl)cc2n1 [II-6e] as the entry.
Outgoing: 67.1

Incoming: Report IC50 at 24 h, nothing else, for this compound: C#CCN(C)c1nc(NC2CCCCC2)c2ccccc2n1 [I-6h]
Outgoing: 53.2

Incoming: Specify reported IC50 at 24 h for the compound shown: C#CCN(C)c1nc(NCCCC)c2ccccc2n1 [I-6e]
Outgoing: 68

Incoming: Read the entry C#CCN(C)c1nc(N)c2cc(OC)ccc2n1 [III-6a] and write its reported IC50 at 24 h.
Outgoing: 38.6

Incoming: Give me measured IC50 at 24 h, please, for this compound: C#CCN(C)c1nc(NC2CCCCC2)c2ccc(Cl)cc2n1 [II-6h]
Outgoing: 35

----------
target: human AChE (hAChE) (Homo sapiens, UniProt P22303); construct: made in house; test: hAChE inhibition, modified Ellman's method; type: biochemical; settings: read-out: % of AChE inhibition
Sequence (P22303 32-614): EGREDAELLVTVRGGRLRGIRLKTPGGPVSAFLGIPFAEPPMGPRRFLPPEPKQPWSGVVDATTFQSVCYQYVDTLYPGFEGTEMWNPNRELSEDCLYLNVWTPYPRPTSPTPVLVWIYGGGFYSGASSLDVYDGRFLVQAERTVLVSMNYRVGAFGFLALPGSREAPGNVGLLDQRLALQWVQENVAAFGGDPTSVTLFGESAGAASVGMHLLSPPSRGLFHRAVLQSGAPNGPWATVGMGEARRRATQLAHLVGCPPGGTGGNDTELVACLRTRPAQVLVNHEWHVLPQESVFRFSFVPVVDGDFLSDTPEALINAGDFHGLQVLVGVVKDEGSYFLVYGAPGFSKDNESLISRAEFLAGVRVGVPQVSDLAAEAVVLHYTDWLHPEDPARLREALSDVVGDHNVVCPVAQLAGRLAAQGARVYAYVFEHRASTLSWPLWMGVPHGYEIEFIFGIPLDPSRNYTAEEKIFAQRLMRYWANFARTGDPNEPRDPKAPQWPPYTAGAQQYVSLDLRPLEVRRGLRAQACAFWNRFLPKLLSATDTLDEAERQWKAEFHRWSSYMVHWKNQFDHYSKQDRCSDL
Kindly supply the reported inhibition at 1 µM values for the records listed here.
Give just the number in %; leave the unit off.

Incoming: Please report inhibition at 1 µM for the following compound: C#CCN(C)c1nc(NCCOC)c2ccccc2n1
Outgoing: 5

Incoming: For C#CCN(C)c1nc(NC(C)C)c2ccc(Cl)cc2n1 , write its inhibition at 1 µM.
Outgoing: 1

Incoming: Specify measured inhibition at 1 µM for C#CCN(C)c1nc(NCC)c2ccc(Cl)cc2n1 .
Outgoing: 4

Incoming: Output inhibition at 1 µM of C#CCN(C)c1nc(NC2CC2)c2cc(OC)ccc2n1
Outgoing: 5

Incoming: Retrieve inhibition at 1 µM measured for C#CCN(C)c1nc(N)c2cc(OC)ccc2n1 and print it.
Outgoing: 9

Incoming: Look up and state reported inhibition at 1 µM for C#CCN(C)c1nc(NCC)c2cc(OC)ccc2n1
Outgoing: 7

----------
Provide the reported pIC50 of each item.
Molecular target: hMAO-A (Homo sapiens, UniProt P21397)
Sequence (P21397 1-527): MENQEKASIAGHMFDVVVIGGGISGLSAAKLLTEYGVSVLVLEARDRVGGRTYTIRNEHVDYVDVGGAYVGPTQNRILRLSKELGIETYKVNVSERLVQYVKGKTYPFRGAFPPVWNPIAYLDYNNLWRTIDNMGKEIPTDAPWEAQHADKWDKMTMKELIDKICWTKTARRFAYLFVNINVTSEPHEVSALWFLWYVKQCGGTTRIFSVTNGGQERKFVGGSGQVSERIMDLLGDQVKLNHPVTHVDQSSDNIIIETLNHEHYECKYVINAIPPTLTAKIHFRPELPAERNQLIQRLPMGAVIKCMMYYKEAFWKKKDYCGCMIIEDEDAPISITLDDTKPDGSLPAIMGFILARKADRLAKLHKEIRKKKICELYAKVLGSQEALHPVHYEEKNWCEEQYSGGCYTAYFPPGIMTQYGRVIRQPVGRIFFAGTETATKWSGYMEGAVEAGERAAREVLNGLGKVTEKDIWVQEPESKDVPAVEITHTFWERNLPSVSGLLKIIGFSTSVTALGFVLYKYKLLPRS
Recall that pIC50 is obtained by taking minus log10 of the concentration measured in molar.

Incoming: Answer with the recorded pIC50 of C#CCN(C)c1nc(NC2CCCCC2)c2ccccc2n1 only.
Outgoing: 6.05

Incoming: Determine its reported pIC50: C#CCN(C)c1nc(NCCCC)c2ccccc2n1
Outgoing: 5.59

Incoming: # return recorded pIC50 for entry C#CCN(C)c1nc(N)c2cc(OC)ccc2n1
Outgoing: 6.21

Recorded values, source paper PMC10252614.
